Experiment: inhibitors of hydroxyurea-induced Chk1 phosphorylation, primary screen, imaging, HeLa, phospho-Chk1 nuclear intensity (AID 1187); note: test concentration not given here
Details: hydroxyurea-induced phospho-Chk1 immunofluorescence imaging, higher = more signal
Parameter measured: z-score
One number for each entry.

Some entries whose results are on file:
Compound: C=C/C=C/[C@@H]1C(=C)CN([C@@H](Cc2ccccc2)C(=O)OC)[C@H]1[C@@H](O)Cc1ccccc1
z-score: 0.221

Compound: COCCOC(=O)N1C(=O)[C@@]2(c3ccccc31)[C@H](c1ccc(OCCO)cc1)N1[C@H](c3ccccc3)[C@H](c3ccccc3)OC(=O)[C@H]1[C@@H]2C(=O)N1CCCCCCC1
z-score: 0.128

Compound: [N-]=[N+]=NC[C@H](Cc1ccccc1)NC(=O)c1ccccc1
z-score: 0.216

Compound: COc1ccc([Si](C)(C)[C@@H]2[C@@H](CCn3cc([C@H](O)c4ccccc4)nn3)O[C@]3(C(=O)N(Cc4cccc(N5C(=O)c6cccc7cccc5c67)c4)c4ccccc43)[C@H]2C)cc1
z-score: -1.33

Batch request: z-score for each of the following compounds.
1. O=c1cccc(-c2ccco2)o1
2. CCCNC(=O)[C@@]1(Sc2ccc(C)cc2)CC(=O)N(C2CCCCC2)[C@@H]1c1ccc(CO)cc1I

Output:
1: -0.106; 2: 0.252

Would you mind listing z-score for each of the following compounds?
1. COc1cc(NN2C(C(O)c3cc(OC)c(OC)c(OC)c3)C=CC3C(=O)N(c4ccccc4)C(=O)C32)cc(OC)c1OC (stereo not drawn)
2. C[C@@H]1ON(c2ccc(I)cc2)[C@H](c2ccc(OC(=O)OC(C)(C)C)cc2)[C@H]1C(=O)N1C(=O)OC[C@H]1Cc1ccccc1

Output:
0.889
-0.859

* * *

Molecular target: Torsin-1A (Homo sapiens) (UniProt O14656)
Sequence (O14656 whole entry, looked up): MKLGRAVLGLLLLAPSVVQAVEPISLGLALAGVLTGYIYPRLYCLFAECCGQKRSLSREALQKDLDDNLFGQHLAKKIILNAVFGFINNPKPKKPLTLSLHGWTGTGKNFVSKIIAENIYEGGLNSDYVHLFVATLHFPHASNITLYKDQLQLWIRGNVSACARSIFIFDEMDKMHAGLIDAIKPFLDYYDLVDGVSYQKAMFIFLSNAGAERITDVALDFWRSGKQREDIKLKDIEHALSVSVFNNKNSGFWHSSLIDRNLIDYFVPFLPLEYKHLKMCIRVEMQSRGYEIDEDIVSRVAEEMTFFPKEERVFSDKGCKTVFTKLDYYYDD
Assay: small-molecule binders of mutant TOR1A in lysate, primary screen, cell lysate, small-molecule microarray, COS7 lysate, 635/667 nm fluorescence (AID 1150);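 note: score pools 667 nm emission and signal to noise measuring lysate protein binding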
Details: COS7 hTOR1A mutant lysate, 635 nm fluorescence, higher = more signal
Use 0.6 as the dividing line for composite z-score, with the line itself on the criterion met side and lower values as criterion not met.

Please review the entries below; each comes with its answer.
Molecule: C=CCNC(=O)[C@@H]1[C@H]2C(=O)O[C@H](c3ccccc3)[C@H](c3ccccc3)N2[C@H](c2ccc(O)cc2)[C@@]12C(=O)Nc1ccc(C#CCC(C(=O)OC)C(=O)OC)cc12
Target entity: Torsin-1A (Homo sapiens) (UniProt O14656)
Discrete label: criterion met

Molecule: CCCCCCCCCCC(O)C1C=CC2C(=O)N(C)C(=O)C2N1Nc1cc(OC)c(OC)c(OC)c1 (configuration not stated)
Target entity: Torsin-1A (Homo sapiens) (UniProt O14656)
Discrete label: criterion not met

Molecule: CC(CO)N1C(=O)[C@@H]2[C@H]3C(=O)OCC=C[C@H]3OC23C=CCN(c2ccc(Cl)cc2)C(=O)[C@@H]13 (some centres not stated)
Target entity: Torsin-1A (Homo sapiens) (UniProt O14656)
Discrete label: criterion not met

Molecule: C=C(COC)C(=O)CC[C@H](OC(C)=O)c1ccc(OCCO)cc1
Target entity: Torsin-1A (Homo sapiens) (UniProt O14656)
Discrete label: criterion met

Task: I'd appreciate it if you could say whether [N-]=[N+]=Nc1ccccc1C[C@]1(C(=O)O)N=C(c2ccc(OCCCO)cc2)O[C@H]1c1ccccc1 has composite z-score at least equal to 0.6.
Output: criterion met

Task: Cool, now NC(=O)[C@@H]1[C@H]2C(=O)O[C@H](c3ccccc3)[C@H](c3ccccc3)N2[C@H](c2ccc(OCCO)cc2)[C@@]12C(=O)Nc1ccc(C#CCCO)cc12
Output: criterion not met
